# key: entry, value: MIC
Tested on: C. albicans ATCC MYA-2310(S) (strain E)
protocol: MIC determination, in vitro antifungal assay (CLSI M27-A3)
Type: cell-based, Candida albicans
settings: Candida albicans, 48 h, MIC-0, 48 h at 35° C., read-out: MIC
measured_quantity: MIC

molecule	value
Fc1ccccc1N/N=C/c1ccc(-c2cccc(/C=N/Nc3ccccc3F)c2)cc1 [Compound 10a]	31.3 µg/mL
Fc1ccc(N/N=C/c2ccc(-c3cccc(/C=N/Nc4ccc(F)cc4F)c3)cc2)c(F)c1 [Compound 20a]	15.6 µg/mL
C/C(=N\NC(=N)N)c1ccc(-c2ccc(/C(C)=N/NC(=N)N)cc2)cc1 [Compound 24c]	15.6 µg/mL
CC(C)(C)N/N=C/c1ccc(-c2ccc(/C=N/NC(C)(C)C)cc2)cc1 [Compound 23b]	31.3 µg/mL
COc1ccc(N/N=C(\C)c2ccc(-c3ccc(/C(C)=N/Nc4ccc(OC)cc4)cc3)cc2)cc1 [Compound 15c]	7.8 to 15.6 µg/mL
Fc1cc(F)cc(N/N=C/c2ccc(-c3ccc(/C=N/Nc4cc(F)cc(F)c4)cc3)cc2)c1 [Compound 22b]	> 31.3 µg/mL
Fc1ccc(F)c(N/N=C/c2ccc(-c3ccc(/C=N/Nc4cc(F)ccc4F)cc3)cc2)c1 [Compound 21b]	> 31.3 µg/mL
COc1cccc(N/N=C(\C)c2ccc(-c3ccc(/C(C)=N/Nc4cccc(OC)c4)cc3)cc2)c1 [Compound 11c]	15.6 µg/mL
Fc1ccc(N/N=C/c2ccc(-c3ccc(/C=N/Nc4ccc(F)cc4F)cc3)cc2)c(F)c1 [Compound 20b]	> 31.3 µg/mL
COc1ccc(N/N=C/c2ccc(-c3ccc(/C=N/Nc4ccc(OC)cc4)cc3)cc2)cc1 [Compound 15b]	3.9 µg/mL
Fc1cccc(N/N=C/c2ccc(-c3cccc(/C=N/Nc4cccc(F)c4)c3)cc2)c1 [Compound 12a]	> 31.3 µg/mL
Fc1ccc(F)c(N/N=C/c2ccc(-c3cccc(/C=N/Nc4cc(F)ccc4F)c3)cc2)c1 [Compound 21a]	> 31.3 µg/mL
Fc1ccc(N/N=C/c2ccc(-c3cccc(/C=N/Nc4ccc(F)cc4)c3)cc2)cc1 [Compound 17a]	7.8 µg/mL
COc1ccccc1N/N=C(\C)c1ccc(-c2ccc(/C(C)=N/Nc3ccccc3OC)cc2)cc1	> 31.3 µg/mL
Fc1cc(F)cc(N/N=C/c2ccc(-c3cccc(/C=N/Nc4cc(F)cc(F)c4)c3)cc2)c1 [Compound 22a]	> 31.3 µg/mL
Brc1ccc(N/N=C/c2ccc(-c3cccc(/C=N/Nc4ccc(Br)cc4)c3)cc2)cc1 [Compound 19a]	> 31.3 µg/mL
C(=N\Nc1ccccc1)/c1ccc(-c2ccc(/C=N/Nc3ccccc3)cc2)cc1	> 31.3 µg/mL
CC(C)Oc1ccc(N/N=C/c2ccc(-c3ccc(/C=N/Nc4ccc(OC(C)C)cc4)cc3)cc2)cc1 [Compound 16b]	> 31.3 µg/mL
N#Cc1ccc(N/N=C/c2ccc(-c3ccc(/C=N/Nc4ccc(C#N)cc4)cc3)cc2)cc1 [Compound 13b]	> 31.3 µg/mL
N=C(N)N/N=C/c1ccc(-c2ccc(/C=N/NC(=N)N)cc2)cc1 [Compound 24b]	> 31.3 µg/mL
CC[C@H](C)C[C@H](C)CCCCCCCCC(=O)N[C@H]1C[C@@H](O)[C@@H](NCCN)NC(=O)[C@@H]2[C@@H](O)CCN2C(=O)[C@H]([C@H](O)CCN)NC(=O)[C@H]([C@H](O)[C@@H](O)c2ccc(O)cc2)NC(=O)[C@@H]2C[C@@H](O)CN2C(=O)[C@H]([C@@H](C)O)NC1=O [CAS, caspofungin, reference compound]	0.12 µg/mL
N=C(N)N/N=C/c1ccc(-c2cccc(/C=N/NC(=N)N)c2)cc1 [Compound 24a]	3.9 µg/mL
Clc1ccc(N/N=C/c2ccc(-c3cccc(/C=N/Nc4ccc(Cl)cc4)c3)cc2)cc1 [Compound 18a]	31.3 µg/mL
C/C(=N\Nc1ccc(F)cc1)c1ccc(-c2ccc(/C(C)=N/Nc3ccc(F)cc3)cc2)cc1 [Compound 17c]	1.95 to 3.9 µg/mL
Fc1ccc(N/N=C/c2ccc(-c3ccc(/C=N/Nc4ccc(F)cc4)cc3)cc2)cc1 [Compound 17b]	7.8 to 15.6 µg/mL
Clc1ccc(N/N=C/c2ccc(-c3ccc(/C=N/Nc4ccc(Cl)cc4)cc3)cc2)cc1 [Compound 18b]	> 31.3 µg/mL
